- target_under_test: UniProt Q9SLN8
- Sequence (Q9SLN8 whole entry): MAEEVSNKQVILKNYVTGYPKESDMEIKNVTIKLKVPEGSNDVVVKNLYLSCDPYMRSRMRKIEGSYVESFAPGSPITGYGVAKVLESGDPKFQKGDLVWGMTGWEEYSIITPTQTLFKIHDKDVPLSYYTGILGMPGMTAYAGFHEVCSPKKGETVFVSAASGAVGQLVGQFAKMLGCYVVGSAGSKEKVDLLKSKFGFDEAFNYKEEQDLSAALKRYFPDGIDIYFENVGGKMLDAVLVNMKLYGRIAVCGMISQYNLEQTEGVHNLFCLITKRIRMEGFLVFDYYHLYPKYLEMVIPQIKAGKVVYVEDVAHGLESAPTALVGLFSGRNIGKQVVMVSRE
metric: Ki (µM)
Give just the numeric value; µM need not be written.

Exercise: What measured Ki is associated with CCC=C(C)C=O on UniProt Q9SLN8?
Key: 2600
